Values were extracted from patent US8362000B2.

test system: CFA-induced paw radiant heat hypersensitivity; assay: CFA-induced paw radiant heat hypersensitivity; assay type: in vivo, rat; conditions: Rattus norvegicus, po; 30 mg/kg p.o., HPβCD, group mean values, last time point 180 or 300 min; read-out: CFA thermal hypersensitivity Method 1: peak % reversal
measured-endpoint: inhibition in vivo at 30 mg/kg (%)
Give bare numbers, in %.

Examples from the recorded data:
[[record]]
smiles = "Cc1nc(-c2cccc(Cl)c2)sc1C(=O)N1CC(N2CCN(C(=O)c3nccs3)CC2)C1"
val = 18.4

[[record]]
smiles = "O=C(c1ccc2c(cnn2-c2ccc(F)c(F)c2)c1)N1CC(N2CCN(C(=O)c3nccs3)CC2)C1"
val = 45

[[record]]
smiles = "Cc1nc(-c2cccc(C(F)(F)F)c2)sc1C(=O)N1CC(N2CCN(C(=O)c3cscn3)CC2)C1"
val = 34.4

[[record]]
smiles = "O=C(c1ccccc1)N1CCN(C2CN(C(=O)c3sc4cc(C(F)(F)F)ccc4c3F)C2)CC1"
val = 17.8

[[record]]
smiles = "O=C(c1cscn1)N1CCN(C2CN(C(=O)c3sc4cc(C(F)(F)F)ccc4c3Cl)C2)CC1"
val = 108

[[record]]
smiles = "O=C(c1ccc2c(ccn2-c2ccc(C(F)(F)F)cc2)c1)N1CC(N2CCN(C(=O)c3cscn3)CC2)C1"
val = 5.1

[[record]]
smiles = "O=C(c1ccc2c(ccn2-c2ccc(C(F)(F)F)cc2)c1)N1CC(N2CCN(C(=O)c3nccs3)CC2)C1"
val = 51

[[record]]
smiles = "O=C(c1ccc2nc(-c3ccccc3)oc2c1)N1CC(N2CCN(C(=O)c3nccs3)CC2)C1"
val = 44.7


I need inhibition in vivo at 30 mg/kg for every entry listed below, if you could help.
1. O=C(c1cscn1)N1CCN(C2CN(C(=O)c3sc4c(F)c(C(F)(F)F)ccc4c3Cl)C2)CC1
2. O=C(c1ccc2nc(-c3ccccc3)oc2c1)N1CC(N2CCN(C(=O)c3cscn3)CC2)C1
3. O=C(c1ccc2c(ccn2-c2ncccn2)c1)N1CC(N2CCN(C(=O)c3nccs3)CC2)C1
4. Cc1cc(-c2cccc(C(F)(F)F)c2)ccc1C(=O)N1CC(N2CCN(C(=O)c3nccs3)CC2)C1
5. Cc1cc(-c2ccc(F)c(Cl)c2)ccc1C(=O)N1CC(N2CCN(C(=O)c3cscn3)CC2)C1
6. O=C(c1cccc(-c2ccc(F)cc2F)c1)N1CC(N2CCN(C(=O)c3nccs3)CC2)C1
7. O=C(c1cscn1)N1CCN(C2CN(C(=O)c3ccc(-c4ccc(Cl)c(C(F)(F)F)c4)cc3Cl)C2)CC1

Solution:
1: 20.9; 2: 5.7; 3: 13.6; 4: 81.8; 5: 64.3; 6: 23.2; 7: 50.5

I need inhibition in vivo at 30 mg/kg for every entry listed below, if you could help.
1. O=C(c1nccs1)N1CCN(C2CN(C(=O)c3sc4cc(C(F)(F)F)ccc4c3Cl)C2)CC1
2. O=C(c1cc2cc(C(F)(F)F)ccc2s1)N1CC(N2CCN(C(=O)c3nccs3)CC2)C1
3. O=C(c1ccccc1)N1CCN(C2CN(C(=O)c3ccc4c(ccn4-c4ccc(F)cc4)c3)C2)CC1

Solution:
48.7
69.3
63.1

###

Answer each item with its documented pKd.
Biological target: mutant MGL (Homo sapiens, UniProt Q99685, L169S/L176S)
Sequence (Q99685 1-303 L169S/L176S): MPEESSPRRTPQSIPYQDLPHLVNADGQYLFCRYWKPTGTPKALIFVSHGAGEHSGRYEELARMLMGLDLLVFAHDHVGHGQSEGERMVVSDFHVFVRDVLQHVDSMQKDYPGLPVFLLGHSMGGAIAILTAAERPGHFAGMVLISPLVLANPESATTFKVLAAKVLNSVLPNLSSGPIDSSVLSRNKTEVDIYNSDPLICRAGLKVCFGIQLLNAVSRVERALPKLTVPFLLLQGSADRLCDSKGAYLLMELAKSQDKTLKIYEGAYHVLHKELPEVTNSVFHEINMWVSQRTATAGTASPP
Assay: MGL ThermoFluor assay - mutant
Format: binding
Conditions: ThermoFluor concentration-response, read-out: MGL mutant ThermoFluor Kd
Numbers only, as −log10 of the molar value.

Examples from the recorded data:
[[record]]
smiles = "O=C(c1ccc2c(c1)[nH]c(=O)n2-c1ccc(F)c(F)c1)N1CC(N2CCN(C(=O)c3cscn3)CC2)C1"
val = 6.41

[[record]]
smiles = "N#Cc1ccc(-c2ccc(C(=O)N3CC(N4CCN(C(=O)c5ccccc5)CC4)C3)cc2)cc1"
val = 6.24


I need pKd for every entry listed below, if you could help.
1. CCCCc1ccc(C(=O)N2CC(N3CCN(C(=O)c4nccs4)CC3)C2)cc1
2. Cc1nc(-c2ccc(Cl)cc2)sc1C(=O)N1CC(N2CCN(C(=O)c3ccccc3)CC2)C1

Solution:
1: 8.22; 2: 6.76

###

Molecular target: purified wild type MGL (wt-MGLL 6H-11-313) (Homo sapiens)
Sequence (Q99685 1-303): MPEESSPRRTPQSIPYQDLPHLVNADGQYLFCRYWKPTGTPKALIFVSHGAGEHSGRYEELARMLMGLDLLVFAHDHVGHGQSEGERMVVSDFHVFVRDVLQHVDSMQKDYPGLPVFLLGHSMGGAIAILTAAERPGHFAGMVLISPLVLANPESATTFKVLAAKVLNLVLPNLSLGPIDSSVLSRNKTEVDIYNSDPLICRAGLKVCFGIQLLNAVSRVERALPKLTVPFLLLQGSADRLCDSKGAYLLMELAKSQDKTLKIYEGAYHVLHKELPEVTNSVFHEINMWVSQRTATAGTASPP
Answer each item with its documented pIC50.
Give bare numbers, as −log10 of the molar value.

Examples from the recorded data:
[[record]]
compound = "Cc1c(C(=O)N2CC(N3CCN(C(=O)c4nccs4)CC3)C2)[nH]c2ccc(Br)cc12 [Cpd 682]"
val = 7.52

[[record]]
compound = "O=C(c1nccs1)N1CCN(C2CN(C(=O)c3cccc4oc(-c5cccnc5)nc34)C2)CC1 [Cpd 1251]"
val = 6.16

[[record]]
compound = "O=C(c1ccc2c(c1)CCN2c1ccc(F)cc1)N1CC(N2CCN(C(=O)c3cscn3)CC2)C1 [Cpd 1081]"
val = 8.05


I need pIC50 for every entry listed below, if you could help.
1. O=C(c1ccc(F)cc1)c1c[nH]c2cc(C(=O)N3CC(N4CCN(C(=O)c5nccs5)CC4)C3)ccc12 [Cpd 1025]
2. Cc1nc2cc(C(=O)N3CC(N4CCN(C(=O)c5nccs5)CC4)C3)ccc2n1-c1ccc(C(F)(F)F)cc1 [Cpd 1215]
3. O=C(c1cscn1)N1CCN(C2CN(C(=O)c3sc4cc(Cl)ccc4c3C(F)(F)F)C2)CC1 [Cpd 699]
4. NC(=O)c1cccc(-n2ccc3cc(C(=O)N4CC(N5CCN(C(=O)c6nccs6)CC5)C4)ccc32)c1 [Cpd 1177]
5. O=C(c1ccccc1)N1CCN(C2CN(C(=O)c3cc(-c4cccc(F)c4)c4[nH]ccc4c3)C2)CC1 [Cpd 600]
6. O=C(c1ccc(-c2cccc(C(F)(F)F)c2)cc1)N1CC(N2CCN(C(=O)c3ccc(Cl)s3)CC2)C1 [Cpd 1143]
7. Cn1nc(-c2ccc(F)cc2)c2cc(C(=O)N3CC(N4CCN(C(=O)c5nccs5)CC4)C3)ccc21 [Cpd 1195]
8. O=C(c1cscn1)N1CC(N2CCN(C(=O)c3cc4cc(Cl)ccc4o3)CC2)C1 [Cpd 809]

Solution:
7.72
6.67
7.16
7.20
5.94
7.52
6.92
5.68

I need pIC50 for every entry listed below, if you could help.
1. O=C(c1ccc2nc(-c3cccc(C(F)(F)F)c3)oc2c1)N1CC(N2CCN(C(=O)c3nccs3)CC2)C1 [Cpd 1158]
2. O=C(c1cccnc1)c1c[nH]c2cc(C(=O)N3CC(N4CCN(C(=O)c5nccs5)CC4)C3)ccc12 [Cpd 950]

Solution:
7.38
5.82

I need pIC50 for every entry listed below, if you could help.
1. CCCCCCCCCCCCCCCCCCCC(=O)N1CC(N2CCN(C(=O)c3nccs3)CC2)C1 [Cpd 640]
2. O=C(c1nccs1)N1CCN(C2CN(C(=O)c3nc4cc(Cl)ccc4s3)C2)CC1 [Cpd 728]
3. Cn1cc(-c2ccccc2)c2ccc(C(=O)N3CC(N4CCN(C(=O)c5ccccc5)CC4)C3)cc21 [Cpd 585]
4. Cc1ccc(-n2ccc3cc(C(=O)N4CC(N5CCN(C(=O)C(F)(F)F)CC5)C4)ccc32)nc1 [Cpd 1184]
5. O=C(c1ccc2c(ccn2-c2ccccn2)c1)N1CC(N2CCN(C(=O)c3ccc[nH]3)CC2)C1 [Cpd 1189]
6. O=C(c1cscn1)N1CCN(C2CN(C(=O)c3ccc(-c4ccccc4)cc3F)C2)CC1 [Cpd 1108]
7. O=C(c1ccccc1)N1CCN(C2CN(C(=O)c3ccc(Oc4cc(C(F)(F)F)ccn4)cc3)C2)CC1 [Cpd 518]

Solution:
1: 4.80; 2: 6.64; 3: 6.97; 4: 7.07; 5: 7.01; 6: 7.85; 7: 5.79

I need pIC50 for every entry listed below, if you could help.
1. COc1ccc(-c2cccc(C(=O)N3CC(N4CCN(C(=O)c5nccs5)CC4)C3)c2)cc1 [Cpd 1091]
2. Cc1nc2cc(C(=O)N3CC(N4CCN(C(=O)c5ccccc5)CC4)C3)ccc2n1-c1ccccc1 [Cpd 635]
3. Cc1c(C(=O)N2CC(N3CCN(C(=O)c4nccs4)CC3)C2)cccc1-c1ccccc1 [Cpd 1234]
4. COc1cc(C(=O)N2CC(N3CCN(C(=O)c4cscn4)CC3)C2)ccc1-c1ccc(F)c(Cl)c1 [Cpd 261]
5. O=C(c1ccc2c(c1)CCN(c1ccccn1)C2)N1CC(N2CCN(C(=O)c3nccs3)CC2)C1 [Cpd 661]

Solution:
[7.96, 6.08, 6.45, 8.08, 8.00]

Problem: Form field: reported pIC50 of O=C(c1cscn1)N1CCN(C2CN(C(=O)c3sc4c(C(F)(F)F)c(F)ccc4c3Cl)C2)CC1 [Cpd 697]
Solution: 7.21
